# assay.explanation: Cytotoxicity against mouse RAW264.7 cells assessed as decrease in cell viability pretreated at 50 uM for 1 hr followed by addition of LPS incubated for 24 hrs by MTT assay
# Type: cell-based
# condition.info: read-out: INH
The following molecules are shown together with reported cytotoxicity at 24 h, 50 µM values.
# value in %; strip the unit string

smiles.repr: CC(C)C[C@@H]1NC(=O)[C@@H]2C[C@@H](O)CN2C1=O
measurement.unit: %
cytotoxicity at 24 h, 50 µM: 3

GET /values?readout=cytotoxicity at 24 h, 50 µM&item= `O=C1N[C@@H](Cc2ccccc2)C(=O)N2CCC[C@@H]12`
3

Input `O=C1N[C@@H](Cc2ccccc2)C(=O)N2C[C@H](O)C[C@@H]12`
3

Input `O=C1NCC(=O)N2CCC[C@@H]12`
3
